Every entry's value here was drawn from PubChem BioAssay (Tox21).

Experiment: qHTS assay for small molecules that induce genotoxicity in human embryonic kidney cells expressing luciferase-tagged ATAD5 (AID 651632); note: nearly all actives have a fitted effect of over 15% in size
Conditions: HEK293T ATAD5-luciferase induction, 16 h; series mostly up to 83.3 µM
From the text: U.S. Tox21 Program National Center for Advancing Translational Sciences [NCATS] NIH Chemical Genomics Center [NCGC] U.S. Environmental Protection Agency [EPA] National Institutes of Environmental Health Sciences [NIEHS] National Toxicology Program [NTP] U.S. Food and Drug Administration [FDA] Tox21 Assay Overview: As cancer cells divide rapidly and during every cell division they need to duplicate their genome by DNA replication. The failure to do so results in the cancer cell death. […]
Results filed as inconclusive are left out. The source made the active and inactive calls. Calls come from the whole dose curve; as a rule, active = well fitted activation curve with a large enough effect in the repeat runs; inconclusive = weak or mixed curves; inactive = no such curve, though single readings can be large or run the other way.
PARAMETER_MEASURED: outcome

| COMPOUND | PARAMETER_MEASURED | ENDPOINT_VALUE |
| --- | --- | --- |
| CC(C)(c1ccccc1)c1ccc(Nc2ccc(C(C)(C)c3ccccc3)cc2)cc1 | outcome | inactive |
| C=CS(=O)(=O)O | outcome | inactive |
| CCCCCC(=O)O[C@]1(C(C)=O)CC[C@H]2[C@@H]3CCC4=CC(=O)CC[C@]4(C)[C@H]3CC[C@@]21C | outcome | inactive |
| CC(=O)OCC1=C(C(=O)O)N2C(=O)[C@@H](NC(=O)Cc3cccs3)[C@H]2SC1 | outcome | inactive |
| Cc1ccnc2c1NC(=O)c1cccnc1N2C1CC1 | outcome | inactive |

Query: Consider the compound shown here: CCOC(=O)C(C)C(C)=O (stereo unspecified) What is its recorded outcome?
Response: inactive
